experiment: Prodrug in vivo pharmacokinetics in dogs (plasma, LC-MS-MS); parameters: species or system Dog (Beagle); settings: Beagle, dog, plasma, po, 2 mg/kg, Example 71 in dog plasma after oral Example 71 (2 mg/kg active); Dog 1
result_type: Cmax (ng/mL)
Number only, in ng/mL; omit the unit.

Short answer for `Cl.N[C@H]1Cc2cc(Oc3ccccc3)ccc2N(O)C1=O` : Cmax was 25.4

* * *

assay: Prodrug in vivo pharmacokinetics in dogs (plasma, LC-MS-MS); design: species or system Dog (Beagle); details: Beagle, dog, plasma, po, 2 mg/kg, Example 71 in dog plasma after oral Example 71 (2 mg/kg active); Dog 2; read-out: AUC
result_type: AUC (ng·h/mL)
Give the value in ng·h/mL but do not write ng·h/mL after it.

So for `Cl.N[C@H]1Cc2cc(Oc3ccccc3)ccc2N(O)C1=O` , the logged AUC turned out to be 12.2
